- target.or.test.system: P. falciparum apicoplast DNA polymerase (Pf-apPOL) (Plasmodium falciparum)
- Sequence (Q8ILY1 entry or part of it): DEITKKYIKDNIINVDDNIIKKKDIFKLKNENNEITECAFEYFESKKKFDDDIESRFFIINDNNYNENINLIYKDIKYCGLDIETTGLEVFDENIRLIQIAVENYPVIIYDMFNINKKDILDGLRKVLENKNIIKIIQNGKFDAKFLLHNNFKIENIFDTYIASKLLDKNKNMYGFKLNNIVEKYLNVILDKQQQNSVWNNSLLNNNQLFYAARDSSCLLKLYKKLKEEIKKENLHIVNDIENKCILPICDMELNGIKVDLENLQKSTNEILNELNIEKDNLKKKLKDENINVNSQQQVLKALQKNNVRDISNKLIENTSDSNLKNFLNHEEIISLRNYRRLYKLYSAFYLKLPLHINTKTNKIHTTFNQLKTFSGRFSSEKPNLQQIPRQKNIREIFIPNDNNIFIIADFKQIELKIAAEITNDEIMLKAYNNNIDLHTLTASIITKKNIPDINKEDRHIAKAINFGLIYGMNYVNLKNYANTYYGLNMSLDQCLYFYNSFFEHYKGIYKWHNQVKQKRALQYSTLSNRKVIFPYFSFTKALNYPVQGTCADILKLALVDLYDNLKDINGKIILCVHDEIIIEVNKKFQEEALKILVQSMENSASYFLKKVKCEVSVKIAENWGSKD
- assay.details: Fluorescence-based high-throughput DNA polymerase assay (molecular beacon), primary screen and dose-response;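 also: test concentration in µM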
- Type: biochemical
- conditions.used: DRC-2; 180'; concentration 20
- Description: The HT assay employs a molecular beacon, a stem-loop DNA template with a Cy3 dye and the Black Hole Quencher on the 3′ and 5′ ends of the DNA, respectively. Pf-apPOL concentration is based on a calculated absorptivity of ε280 = 56750 M^−1 cm^−1. […] To identify apPOL inhibitors we utilised our previously developed high-throughput DNA polymerase assay. […] The assay accurately recapitulates the kinetic behaviour of apPOL, as measured through more conventional low-throughput gel-based assays. […]
observation.type: % inhibition apPOL 180' (%)
Give bare numbers, in %.

molecule	target.or.test.system	result.unit	% inhibition apPOL 180'
O=C(Cn1ccc2c(=O)[nH]ccc21)Nc1ccc(Cl)cc1 [Molecule 36, O=C(Cn1ccc2c1cc[nH]c2=O)Nc1ccc(cc1)Cl]	P. falciparum apicoplast DNA polymerase (Pf-apPOL) (Plasmodium falciparum)	%	63
O=c1cc(CN2CCCCC2)c2cc3c(cc2o1)OCO3 [Molecule 56, O=c1cc(CN2CCCCC2)c2c(o1)cc1c(c2)OCO1]	P. falciparum apicoplast DNA polymerase (Pf-apPOL) (Plasmodium falciparum)	%	32
Cc1ccc(NC(=O)Cn2ccc3c(=O)[nH]ccc32)cc1F [Molecule 48, O=C(Cn1ccc2c1cc[nH]c2=O)Nc1ccc(c(c1)F)C]	P. falciparum apicoplast DNA polymerase (Pf-apPOL) (Plasmodium falciparum)	%	49

Could you tell me % inhibition apPOL 180' for each of these molecules? They are listed below.
1. CC1(C)CC(=O)C2=C(C1)OC1=C(C(=O)CC(C)(C)C1)C2c1ccc(O)cc1 [KU0194226]
2. O=C1N/C(=N/c2ccccc2Cl)S/C1=C/c1ccc([N+](=O)[O-])o1 [KU0054524]

1. 36
2. 58
